- Measurement Target: T1, mouse plasma kallikrein (mouse, UniProt P26262 20-638, limits assumed)
- T1 construct: also called mouse pKal
- T1 sequence (P26262 20-638 limits assumed): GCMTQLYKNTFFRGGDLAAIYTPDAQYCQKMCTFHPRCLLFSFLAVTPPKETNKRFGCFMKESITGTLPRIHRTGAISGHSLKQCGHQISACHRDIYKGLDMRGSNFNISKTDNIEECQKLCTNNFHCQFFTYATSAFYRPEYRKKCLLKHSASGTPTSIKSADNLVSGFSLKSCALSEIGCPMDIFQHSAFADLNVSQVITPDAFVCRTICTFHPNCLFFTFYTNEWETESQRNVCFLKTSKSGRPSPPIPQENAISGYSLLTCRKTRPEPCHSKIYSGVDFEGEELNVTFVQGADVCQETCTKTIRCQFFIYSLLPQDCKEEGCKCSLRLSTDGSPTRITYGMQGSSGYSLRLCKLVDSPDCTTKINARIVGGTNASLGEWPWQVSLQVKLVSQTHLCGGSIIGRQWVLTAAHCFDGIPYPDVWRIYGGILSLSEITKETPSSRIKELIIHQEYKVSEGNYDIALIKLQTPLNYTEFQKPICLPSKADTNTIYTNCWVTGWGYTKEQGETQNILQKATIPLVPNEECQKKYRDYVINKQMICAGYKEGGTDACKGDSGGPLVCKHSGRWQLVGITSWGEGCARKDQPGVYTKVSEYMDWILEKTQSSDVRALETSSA
- Test Details: apparent Ki (Ki,app), inhibition of mouse pKal enzyme activity
- Protocol: Apparent Inhibition constants (K_{i,app} values) were measured by pre-incubating enzyme and inhibitor solutions prior to initiating the reactions with substrate. […] Reactions were initiated by the addition of 10 μL of a 10× concentrated stock of substrate, and were monitored at 30° C. in a fluorescence plate reader with the excitation and emission wavelengths set at 360 nm/460 nm, respectively. […]
Attribute Measured: pKi
Reminder that pKi means the negative base-10 logarithm of the concentration expressed in mol/L.

## Task Specify pKi for M145-D11 (Fab, V domains shown, also called 559A-M145-D11 (sFab); 559A-M0145-D11) VH: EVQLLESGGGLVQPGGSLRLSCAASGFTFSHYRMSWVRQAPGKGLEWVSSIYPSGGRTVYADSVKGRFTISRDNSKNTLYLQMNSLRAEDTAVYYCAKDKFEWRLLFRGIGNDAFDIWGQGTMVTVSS VL: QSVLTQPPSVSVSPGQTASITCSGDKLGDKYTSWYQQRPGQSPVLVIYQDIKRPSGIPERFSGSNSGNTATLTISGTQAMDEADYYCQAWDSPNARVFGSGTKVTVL and stop.
## Result 6.10
